- Experimental Details: Tissue distribution
- Experimental Conditions: both, SD, rat, thymus, iv, 6 μmol/kg
Parameter: concentration at 4 h (ng/g)
Give bare numbers, in ng/g.

I'd like to know its concentration at 4 h. The compound in question is `CO[C@H]1C(=O)[C@]2(C)[C@@H](OC)C[C@H]3OC[C@@]3(OC(C)=O)[C@H]2[C@H](OC(=O)c2ccccc2)[C@]2(O)C[C@H](OC(=O)[C@H](O)[C@@H](NC(=O)OC(C)(C)C)c3ccccc3)C(C)=C1C2(C)C`
110

---

- Experimental Details: Hemolysis test
- Assay type: cell-based, SD rats
- Experimental Conditions: SD, rat, rat red blood cells, 2% (v/v) suspension; 300 nmol/mL (maximum tested), 37 °C, 1.5 h; read-out: hemolysis rate
Parameter: hemolysis at 1.5 h, 300 nmol/mL (%)
Give bare numbers, in %.

Compound	Unit Text	Quantitative Result
COC1C(=O)C2(C)C(OC)CC3OCC3(OC(C)=O)C2C(OC(=O)c2ccccc2)C2(O)CC(OC(=O)C(OC(=O)CN(CCN(CCN(CC(=O)O)CC(=O)O)CC(=O)O)CC(=O)O)C(NC(=O)OC(C)(C)C)c3ccccc3)C(C)=C1C2(C)C (centres unmarked) [CTX-DTPA]	%	12.1

Lab note: next compound to report on.
I'd like to know its hemolysis at 1.5 h, 300 nmol/mL. The compound in question is COC1C(=O)C2(C)C(OC)CC3OCC3(OC(C)=O)C2C(OC(=O)c2ccccc2)C2(O)CC(OC(=O)C(OC(=O)CN(CCN(CCN(CCN(CC(=O)O)CC(=O)O)CC(=O)O)CC(=O)O)CC(=O)O)C(NC(=O)OC(C)(C)C)c3ccccc3)C(C)=C1C2(C)C (centres unmarked) [CTX-TTHA]
28.3

---

- Experimental Details: Hemolysis test
- Assay type: cell-based, SD rats
- Experimental Conditions: SD, rat, rat red blood cells, 2% (v/v) suspension; 75 nmol/mL, 37 °C, 1.5 h; read-out: hemolysis rate
Parameter: hemolysis at 1.5 h, 75 nmol/mL (%)
Answers are plain numbers, in %.

I'd like to know its hemolysis at 1.5 h, 75 nmol/mL. The compound in question is `CO[C@H]1C(=O)[C@]2(C)[C@@H](OC)C[C@H]3OC[C@@]3(OC(C)=O)[C@H]2[C@H](OC(=O)c2ccccc2)[C@]2(O)C[C@H](OC(=O)[C@H](O)[C@@H](NC(=O)OC(C)(C)C)c3ccccc3)C(C)=C1C2(C)C`
73.4

---

- Experimental Details: Tissue distribution
- Experimental Conditions: both, SD, rat, thymus, iv, 6 μmol/kg
- Experimental: Male and female SD rats (200–220 g) received intravenous injections of CTX or CTX-DTPA (6 μmol/kg). CTX was dissolved in 2.5% Tween 80/2.5% EtOH/saline, while CTX-DTPA used saline alone. Blood samples were collected at 5 min to 24 h post-dose. […] Plasma and tissue samples were processed by liquid-liquid extraction with n-butanol and analyzed via LC-MS/MS (Agilent Poroshell 120 EC-C18 column; 0.05% formic acid/acetonitrile gradient). […]
Parameter: concentration at 15 min (ng/g)
Answers are plain numbers, in ng/g.

I'd like to know its concentration at 15 min. The molecule in question is CO[C@H]1C(=O)[C@]2(C)[C@@H](OC)C[C@H]3OC[C@@]3(OC(C)=O)[C@H]2[C@H](OC(=O)c2ccccc2)[C@]2(O)C[C@H](OC(=O)[C@H](O)[C@@H](NC(=O)OC(C)(C)C)c3ccccc3)C(C)=C1C2(C)C [CTX, Cabazitaxel]
87.8
